Values compiled from ChEMBL document CHEMBL2385035.

assay: Apparent permeability in MDCK cells expressing MDR1 at 3 uM after 60 mins by LC-MS/MS analysis; format: ADME, cell-based, Canis lupus familiaris; conditions: dog
In this section, each of the molecules is paired with its reported Papp at 1 h, 3 µM.
Answer format: numeric, ×10⁻⁶ cm/s implied, no suffix.

[[record]]
molecule = "CCCC[C@]1(CC)CS(=O)(=O)c2cc(OCCCP(=O)(O)O)c(OC)cc2[C@@H](c2ccccc2)N1"
recorded_number = 1


q: What Papp at 1 h, 3 µM value was documented for this molecule, CCCC[C@]1(CC)CS(=O)(=O)c2cc(CNC(CC(=O)O)CC(=O)O)c(OC)cc2[C@@H](c2ccccc2)N1 [LINERIXIBAT] ?
a: 0.7

q: What Papp at 1 h, 3 µM value was documented for this molecule, CCCC[C@]1(CC)CS(=O)(=O)c2cc(CCC(=O)O)c(OC)cc2[C@@H](c2ccccc2)N1 ?
a: 38.3

q: What Papp at 1 h, 3 µM value was documented for this molecule, CCCC[C@]1(CC)CS(=O)(=O)c2cc(CNCC(=O)O)c(OC)cc2[C@@H](c2ccccc2)N1 ?
a: 2.7
